TARGET: Akt1 kinase (Homo sapiens)
Construct: a middle T tag was added to the 5′ end of the full length Akt1 gene; middle T tag (EYMPME) (N); biotin tag (from pS2neo vector); made in house; host or cells: Drosophila S2 cells
Sequence (P31749 whole entry): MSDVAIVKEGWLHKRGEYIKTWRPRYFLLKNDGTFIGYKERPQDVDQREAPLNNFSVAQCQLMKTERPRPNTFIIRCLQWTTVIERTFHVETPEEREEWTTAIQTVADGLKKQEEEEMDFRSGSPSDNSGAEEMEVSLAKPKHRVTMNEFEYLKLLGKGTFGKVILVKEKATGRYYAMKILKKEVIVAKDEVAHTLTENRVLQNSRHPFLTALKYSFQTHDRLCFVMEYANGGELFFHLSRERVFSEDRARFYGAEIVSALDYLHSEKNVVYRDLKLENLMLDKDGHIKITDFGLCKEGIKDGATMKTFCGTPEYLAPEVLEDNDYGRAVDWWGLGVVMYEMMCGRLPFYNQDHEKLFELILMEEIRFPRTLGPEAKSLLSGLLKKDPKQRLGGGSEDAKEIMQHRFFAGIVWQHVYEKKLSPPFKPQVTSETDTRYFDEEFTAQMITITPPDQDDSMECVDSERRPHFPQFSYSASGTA
ASSAY: Akt kinase assay (HTRF, GSK-derived biotinylated peptide substrate)
Type: biochemical

{"columns": ["MOLECULE", "TARGET", "IC50 / nM"],
 "data": [
  ["C=CCNC(=O)C1CCN(Cc2ccc(-c3nc4c(cnc5cc(C)nn54)cc3-c3ccccc3)cc2)CC1 [EXAMPLE 15-3]", "Akt1 kinase (Homo sapiens)", 37.2],
  ["NC1(c2ccc(-c3nc4c(ccn5c(C6CC6)nnc45)cc3-c3ccccc3)cc2)CCC1 [EXAMPLE 9-2]", "Akt1 kinase (Homo sapiens)", 32.7]
]}
